# target: Progesterone receptor (Homo sapiens)
# test.details: qHTS assay to identify small molecule antagonists of the progesterone receptor (PR) signaling pathway (AID 1346795)
# condition.summary: PR-UAS-bla HEK293T, beta-lactamase FRET ratio, 16 h; series mostly up to 92.4 µM
Records with an inconclusive call do not appear. Active and inactive are the calls of the source. The call rests on the fitted dose curve; in most records, active means well fitted inhibition curve with a large enough effect in the signal ratio in the repeat runs (not every such curve was filed as active); inconclusive means weak or mixed curves; inactive means flat fitted curve, though single readings scatter; the % refers to the signal ratio.
Hi! Could you answer with just one of these? active, inactive

Example entries begin here.
>>> assigned_category("COc1cc(CC(C)N)cc2c1OCO2 (centres undefined)")
"inactive"
>>> assigned_category("IC(I)=C(I)I")
"active"
>>> assigned_category("C=COC(C)=O")
"inactive"
>>> assigned_category("Clc1cc(Cl)c(Cl)c(Cl)c1")
"inactive"
>>> assigned_category("Cc1ccccc1CCl")
"inactive"
>>> assigned_category("CC(=O)[C@H]1CC[C@H]2[C@@H]3CC[C@H]4C[C@](C)(O)CC[C@]4(C)[C@H]3CC[C@]12C")
"inactive"

Prompt: Hi, do you know how CCOc1ccc(C(C)(C)COCc2cccc(Oc3ccccc3)c2)cc1 came out in this test?
Response: inactive

Prompt: Hi, do you know how COP(=S)(OC)Oc1ccc([N+](=O)[O-])cc1Cl came out in this test?
Response: inactive

Prompt: Hi, do you know how O=C(O)CC(Cl)C(=O)O (centres undefined) came out in this test?
Response: inactive

###

# test.details: qHTS RealTime-Glo MT Cell Viability Assay in HepG2 cells - 40 hour (AID 1224870); further: on the % scale 0 is the no-effect control and ±100 the full control effect; nearly all actives have a fitted effect of over 50% in size
# condition.summary: RealTime-Glo luminescence; series mostly up to 76.8 µM
Inconclusive results are not listed. Active and inactive are the calls of the source. The call rests on the fitted dose curve; in most records, active means well fitted cell-killing curve with a large enough effect in the repeat runs; inconclusive means weak or mixed curves, or effect the other way; inactive means flat fitted curve, though single readings scatter.
Hi! Could you answer with just one of these? class 1 for active, class 0 for inactive

>>> assigned_category("O=Cc1ccc2c(c1)OCO2")
"class 0"

Prompt: Hi, do you know how CO/N=C(/C(=O)OC)c1ccccc1COc1ccccc1C came out in this test?
Response: class 0

Prompt: Hi, do you know how ClCCCCBr came out in this test?
Response: class 0

Prompt: Hi, do you know how COCCOCCO came out in this test?
Response: class 0

###

# test.details: qHTS assay to identify small molecule antagonists of the sonic hedgehog signaling (Shh) pathway - cell viability counter screen (AID 1259367); further: nearly all actives have a fitted effect of over 55% in size
# condition.summary: NIH/3T3 Gli1-Luc viability, CellTiter-Fluor, 24 h; series mostly up to 92.4 µM
# Excerpt: National Center for Advancing Translational Sciences [NCATS] NIH Chemical Genomics Center [NCGC] U.S. Environmental Protection Agency [EPA] National Institutes of Environmental Health Sciences [NIEHS] National Toxicology Program [NTP] U.S. Food and Drug Administration [FDA] The sonic hedgehog (Shh) pathway is essential for normal embryonic development. Dysregulation of the Shh pathway can cause severe developmental defects in organs. […]
Results filed as inconclusive are left out. Activity calls are given as the source filed them. Calls follow the shape of the dose curve; as a rule, active = well fitted cell-killing curve with a large enough effect in the repeat runs; inconclusive = weak or mixed curves, or effect the other way; inactive = no such curve, though single readings can be large or run the other way.
Hi! Could you answer with just one of these? y = active, n = inactive

Example entries begin here.
>>> assigned_category("O=[N+]([O-])C(Br)(CO)CO")
"y"
>>> assigned_category("CCCCCCCCOC(=O)c1ccc(C(=O)OCCCCCCCC)c(C(=O)OCCCCCCCC)c1")
"n"
>>> assigned_category("C=CC(C)=O")
"n"
>>> assigned_category("CCOC(=O)CBr")
"n"
>>> assigned_category("O=C(O)C1(c2ccc3c(c2)OC[C@H](Cc2ccc(-c4ccccc4)cc2)[C@H]3O)CCCC1")
"n"

Lab note: next compound to report on.
Prompt: Hi, do you know how CNC(C)Cc1ccccc1OC (stereo unspecified) came out in this test?
Response: n
